The measured values listed here are drawn from patent US20040092720A1.

Target: T1, recombinant human IL-6 (human, UniProt P05231 30-212, labeled with radioactive iodine)
T1 construct: Labeled probe in solution, added to wells that carry the synthetic peptides; also called IL-6 ligand; Interleukin-6
Experiment: radioiodinated IL-6 on peptide array
Readout label: log10 Counts/minute bound (log10 of the value in counts/minute)

# Binder, Assay value
rows = [
    ("DSSHTEYTLSSLTSDTLYMVRMAA [Peptide E58]", 3.13),
    ("FERSKQVSSVNEEDFVRLKQQISD [Peptide E84]", 3.01),
    ("KEKCMDYFHVNANYIVWKTNHFTI [Peptide E6]", 3.16),
    ("TEGHSSGIGGSSCMSSSRPSISSS [Peptide E73]", 3.03),
    ("QQEDGTVHRTYLRGNLAESKCYLI [Peptide E48]", 3.03),
    ("ERPEDLQLVDHVDGGDGILPRQQY [Peptide E80]", 3.08),
    ("TGELLDPCGYISPESPVVQLHSNF [Peptide E3]", 3.11),
    ("DCKAKRDTPTSCTVDYSTVYFVNI [Peptide E18]", 3.19),
    ("ENALGKVTSDHINFDPVYKVKPNP [Peptide E21]", 3.05),
    ("PPRHNFNSKDQMYSDGNFTDVSVV [Peptide E68]", 3.09),
    ("IINRTASSVTFTDIASLNIQLTCN [Peptide E9]", 3.21),
    ("KKYILEWCVLSDKAPCITDWQQED [Peptide E46]", 3.23),
    ("TRWKSHLQNYTVNATKLTVNLTND [Peptide E38]", 3.56),
    ("GSGQMKMFQEVSAADAFGPGTEGQ [Peptide E87]", 3.00),
    ("SFWYKIDPSHTQGYRTVQLVWKTL [Peptide E34]", 3.06),
    ("VEWTTPRESVKKYILEWCVLSDKA [Peptide E45]", 3.14),
    ("TVVHSGYRHQVPSVQVFSRSESTQ [Peptide E77]", 3.10),
    ("VPSVQVFSRSESTQPLLDSEERPE [Peptide E78]", 3.09),
    ("QNTSSTVQYSTVVHSGYRHQVPSV [Peptide E76]", 3.08),
    ("KAFPKDNMLWVEWTTPRESVKKYI [Peptide E44]", 3.07),
    ("KAYLKQAPPSKGPTVRTKKVGKNE [Peptide E52]", 3.26),
    ("VGMEAATDEGMPKSYLPQTVRQGG [Peptide E90]", 3.14),
    ("KLTWTNPSIKSVIILKYNIQYRTK [Peptide E25]", 4.01),
    ("QLPVDVQNGFIRNYTIFYRTIIGN [Peptide E55]", 3.64),
    ("PFTEYVFRIRCMKEDGKGYWSDWS [Peptide E30]", 3.10),
    ("KGPTVRTKKVGKNEAVLEWDQLPV [Peptide E53]", 3.21),
    ("NLSCIVNEGKKMRCEWDGGRETHL [Peptide E14]", 3.07),
    ("IRNYTIFYRTIIGNETAVNVDSSH [Peptide E56]", 3.21),
]
